Biological target: skeletal ryanodine receptor (RyR1) (Ovis aries, UniProt A0ACI6NWU0)
Assay: single-channel recording in planar lipid bilayers (activation); also [3H]ryanodine binding EC50 […]
Format: biochemical
Parameters: native RyR1 channels from skeletal muscle heavy SR vesicles
endpoint: pEC50
# reply with the number alone; pEC50 is -log10 of concentration in mol/L

For record "CC(C)c1c(C(=O)Nc2ccccc2)c(-c2ccccc2)c(-c2ccc(F)cc2)n1CC[C@@H](O)C[C@@H](O)CC(=O)O" the listed pEC50 is 7.54
